target: dTDP-4-dehydrorhamnose 3,5-epimerase (Mycobacterium tuberculosis (strain CDC 1551 / Oshkosh), UniProt P9WH10); experiment: Inhibition of Mycobacterium tuberculosis RmlC expressed in Escherichia coli by spectrophotometry
Sequence (P9WH10 whole entry): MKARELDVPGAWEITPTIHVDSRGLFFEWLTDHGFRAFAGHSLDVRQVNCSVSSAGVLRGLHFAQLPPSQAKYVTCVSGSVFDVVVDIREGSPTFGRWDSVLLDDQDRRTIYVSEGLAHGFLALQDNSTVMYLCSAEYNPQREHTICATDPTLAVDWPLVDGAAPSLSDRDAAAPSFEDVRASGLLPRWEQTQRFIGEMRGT
pIC50: −log10 of the molar value.
Param threshold (6) applies to pIC50; output T when value >= threshold, F when value < threshold.

Worked cases, answers included:
>  <inputSmiles>
C=CCn1c2ccccc2c2nnc(S(=O)(=O)CCCn3c(=O)[nH]c4ccccc43)nc21

>  <classLabel>
T

$$$$
>  <inputSmiles>
O=c1[nH]c2ccccc2n1CCCSc1nnc2c(n1)[nH]c1ccccc12

>  <classLabel>
F

$$$$
>  <inputSmiles>
C=CCn1c2ccc(C)cc2c2nnc(SCCCn3c(=O)[nH]c4ccccc43)nc21

>  <classLabel>
F

$$$$
>  <inputSmiles>
C=CCn1c2ccccc2c2nnc(SCCCn3c(=O)[nH]c4ccccc43)nc21

>  <classLabel>
T

$$$$
>  <inputSmiles>
Cn1c2ccccc2c2nnc(SCCCn3c(=O)[nH]c4ccccc43)nc21

>  <classLabel>
T

$$$$
>  <inputSmiles>
O=c1[nH]c2ccccc2n1CCCSc1nnc2c3ccccc3n(Cc3ccccc3)c2n1

>  <classLabel>
F

$$$$

Exam item: Does `CCn1c2ccccc2c2nnc(SCCCn3c(=O)[nH]c4ccccc43)nc21` have a reported pIC50 of at least 6?
Marked response: T

Exam item: Hello, I need to know if `C=CCn1c2ccccc2c2nnc(SCn3c(=O)[nH]c4ccccc43)nc21` has measured pIC50 not below 6. Thanks!
Marked response: F
